Assayed System: MCR-1 (Homo sapiens)
Construct: expressed in transfected cells; host or cells: HEK 293
Experiment Summary: Melanocortin receptor binding assay, competition with 125I-HP 467, HEK 293 cells expressing hMCR-1
Setup Conditions: 10 μM isoquinoline compound, HEK 293 cells expressing MCR-1, duplicate 1
Measured Quantity: % Disp. of 125I-HP 467 (first of duplicate) (%)

Record excerpt, results attached:
molecule="CNC(CN)CCCCN1Cc2ccccc2C(CNC2CCCCC2)C1c1cccc(C(F)(F)F)c1 (centres unmarked)" value_measured=75.9
molecule="CNC(CN)CCCCN1Cc2ccccc2C(CNC2CCCCC2)C1c1cccc(Br)c1 (centres unmarked)" value_measured=74.5
molecule="CNC(CN)CCCCN1Cc2ccccc2C(CNC2CCCCC2)C1c1ccc(C)s1 (centres unmarked)" value_measured=80.7
molecule="CNC(CN)CN1Cc2ccccc2C(CNC2CCCCC2)C1c1nccs1 (centres unmarked)" value_measured=72
molecule="CNC(CN)CCCCN1Cc2ccccc2C(CNC2CCCCC2)C1c1ccc2ccccc2n1 (centres unmarked)" value_measured=63
molecule="CNC(CN)CCCCN1Cc2ccccc2C(CNC2CCCCC2)C1c1cc(Cl)cc(Cl)c1Cl (mixture of isomers)" value_measured=64.6

a = CNC(CN)CCCCN1Cc2ccccc2C(CNC2CCCCC2)C1c1ccc2ccccc2c1 (centres unmarked)
b = CNC(CN)CCCCN1Cc2ccccc2C(CNC2CCCCC2)C1c1ccccc1O (mixture of isomers)
c = CNC(CN)CCCCN1Cc2ccccc2C(CNC2CCCCC2)C1c1cccn1C (centres unmarked)
Rank the 3 molecules: largest % Disp. of 125I-HP 467 (first of duplicate) first, smallest last. Answer format: list of labels, ordered as asked.
a, c, b

1 = CNC(CN)CCCCN1Cc2ccccc2C(CNC2CCCCC2)C1c1ccccn1 (centres unmarked)
2 = CNC(CN)CCCCN1Cc2ccccc2C(CNC2CCCCC2)C1c1ccc(C)o1 (centres unmarked)
Would you kindly point out which of 1 and 2 has the smaller % Disp. of 125I-HP 467 (first of duplicate) figure? Reply briefly: the label of your chosen item.
2
(2: 42.5%, 1: 61.1%)

A = CNC(CN)CCCCN1Cc2ccccc2C(CNC2CCCCC2)C1c1cc(Cl)cc(Cl)c1 (centres unmarked)
B = CNC(CN)CCCCN1Cc2ccccc2C(CNC2CCCCC2)C1c1nccs1 (centres unmarked)
Lowest % Disp. of 125I-HP 467 (first of duplicate)? choose A or B # reply format: chosen label
B

* * *

Assayed System: MCR-1 (Homo sapiens, UniProt Q01726)
Construct: expressed in transfected cells; host or cells: HEK 293
Sequence (Q01726 whole entry): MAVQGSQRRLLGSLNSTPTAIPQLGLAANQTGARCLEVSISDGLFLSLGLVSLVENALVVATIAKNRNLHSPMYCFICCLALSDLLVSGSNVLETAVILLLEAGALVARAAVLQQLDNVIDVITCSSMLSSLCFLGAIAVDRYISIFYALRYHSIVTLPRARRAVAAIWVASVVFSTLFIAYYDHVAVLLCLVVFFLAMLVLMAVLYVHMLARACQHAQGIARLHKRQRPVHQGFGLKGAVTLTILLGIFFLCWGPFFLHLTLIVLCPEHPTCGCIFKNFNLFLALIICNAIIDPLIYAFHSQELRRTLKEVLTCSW
Experiment Summary: Melanocortin receptor binding assay, competition with 125I-HP 467, HEK 293 cells expressing hMCR-1
Setup Conditions: 10 μM isoquinoline compound, HEK 293 cells expressing MCR-1, duplicate 1
Measured Quantity: % Disp. of 125I-HP 467 (first of duplicate) (%)

molecule="CNC(CN)CCCCN1Cc2ccccc2C(CNC2CCCCC2)C1c1ccc(Br)cc1 (centres unmarked) [TRG 2405-242]" value_measured=86
molecule="CNC(CN)CCCCN1Cc2ccccc2C(CNC2CCCCC2)C1c1ccncc1 (centres unmarked) [TRG 2405-254]" value_measured=24.9
molecule="CNC(CN)CCCCN1Cc2ccccc2C(CNC2CCCCC2)C1c1ccc([N+](=O)[O-])cc1 (centres unmarked) [TRG 2405-251]" value_measured=49.4

a = CNC(CN)CCCCN1Cc2ccccc2C(CNC2CCCCC2)C1c1c(F)cccc1Cl (centres unmarked) [TRG 2405-194]
b = CNC(CN)CCCCN1Cc2ccccc2C(CNC2CCCCC2)C1c1ccc(Cl)cc1Cl (centres unmarked) [TRG 2405-190]
c = CNC(CN)CCCCN1Cc2ccccc2C(CNC2CCCCC2)C1c1ccc(CN)cc1 (centres unmarked) [TRG 2405-244]
Put the items in order so that reported % Disp. of 125I-HP 467 (first of duplicate) rises from first to last. # the answer lists labels in the order requested
c, a, b
(c: 29.7%, a: 50.7%, b: 79.4%)
